# target or system: UniProtKB Q8IUQ4
# protocol description: Siah-1 peptide-binding antagonists, alternate label, dose response, artefact control for Siah-1 antagonist project, biochemical, fluorescence polarization, fluorescein-plectin (AID 2127)
# test context: Siah-1/fluorescein-plectin binding
Calls of active or inactive are those of the source.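 How the source made its calls: active means half-maximal inhibitory concentration below a set limit; inactive means the rest.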
Lab note: assign the record to one of T for active, F for inactive

Example entries begin here.
| molecule | category label |
| --- | --- |
| Cc1cc(C)n(-c2ccc(Cl)c(C(=O)Nc3cc(C(F)(F)F)ccc3Cl)n2)n1 | F |
| CC[n+]1c(/C=C/N(C)c2ccccc2)sc2ccc(Cl)cc21 | F |
| O=C(Nc1cc([N+](=O)[O-])ccc1N1CCOCC1)c1cccs1 | F |
| O=C(NCc1ccc(Cl)cc1)c1cc(-c2cccs2)on1 | F |
| CSc1ccccc1C(=O)NC(C)c1ccc(-n2ccnc2)cc1 (configuration not stated) | F |

### Prompt Look up the recorded call for CCCCN(Cc1cc2cc(OC)ccc2[nH]c1=O)S(=O)(=O)c1ccc(C)cc1 in this test.
### Response F

### Prompt Can you check CCCCNc1c2c3c(cccc3n(C)c1=O)C(=O)c1ccccc1-2 next?
### Response F

### Prompt Can you check Cc1ccc(S(=O)(=O)N2CCC(=O)N(C(COCc3cccc(C)c3)Cc3ccccc3)CC2)cc1 (configuration not stated) next?
### Response F
